- ASSAYED TARGET: AVPR1A (Homo sapiens, UniProt P37288)
- Construct: purchased Promega (in-house HiBiT-GPCR construct library, NanoBRET)
- Sequence (P37288 whole entry): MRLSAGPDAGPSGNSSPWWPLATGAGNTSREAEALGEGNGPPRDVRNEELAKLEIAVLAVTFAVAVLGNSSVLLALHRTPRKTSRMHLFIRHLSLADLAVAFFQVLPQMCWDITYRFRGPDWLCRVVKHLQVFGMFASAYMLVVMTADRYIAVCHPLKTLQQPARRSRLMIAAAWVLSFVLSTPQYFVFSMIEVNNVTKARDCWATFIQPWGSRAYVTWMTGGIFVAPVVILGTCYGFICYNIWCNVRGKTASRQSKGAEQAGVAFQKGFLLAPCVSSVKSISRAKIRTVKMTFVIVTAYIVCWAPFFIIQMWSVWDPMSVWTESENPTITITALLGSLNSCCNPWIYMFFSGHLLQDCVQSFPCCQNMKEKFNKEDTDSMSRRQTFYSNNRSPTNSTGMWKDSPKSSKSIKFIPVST
- PROTOCOL SUMMARY: NanoBRET screen HiBiT-AVPR1A in HEK293
- Type: binding
- CONDITION DETAILS: AVPR1A; tracer 0.1μM
OBSERVED PROPERTY: NanoBRET Fold Response
# output: bare number, no unit

Field NanoBRET Fold Response (entry O=C(CCOCCOCCOCCOCCNC(=O)CCc1ccc2n1[B-](F)(F)[N+]1=C(c3ccc[nH]3)C=CC1=C2)NCCCN1CCN(C2=Nc3ccccc3Oc3ccc(Cl)cc32)CC1 [Loxapine-a-2-NB590] ) reads 1.16

###

- ASSAYED TARGET: HTR2B (Homo sapiens)
- Construct: purchased Promega (in-house HiBiT-GPCR construct library, NanoBRET)
- Sequence (P41595 whole entry): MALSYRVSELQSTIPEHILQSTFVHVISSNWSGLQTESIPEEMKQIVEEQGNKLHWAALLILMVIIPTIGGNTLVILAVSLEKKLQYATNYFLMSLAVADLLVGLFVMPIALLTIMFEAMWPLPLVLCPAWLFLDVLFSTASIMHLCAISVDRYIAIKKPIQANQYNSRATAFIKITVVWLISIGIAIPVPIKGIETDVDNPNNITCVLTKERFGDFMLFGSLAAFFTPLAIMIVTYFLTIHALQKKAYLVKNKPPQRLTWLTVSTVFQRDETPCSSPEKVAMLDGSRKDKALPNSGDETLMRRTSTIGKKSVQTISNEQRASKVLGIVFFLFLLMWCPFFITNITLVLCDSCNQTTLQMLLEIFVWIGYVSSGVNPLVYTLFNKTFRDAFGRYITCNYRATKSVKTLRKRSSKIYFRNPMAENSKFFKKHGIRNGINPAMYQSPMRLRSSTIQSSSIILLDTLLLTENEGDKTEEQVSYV
- PROTOCOL SUMMARY: NanoBRET screen HiBiT-HTR2B in HEK293
- Assay type: binding
- CONDITION DETAILS: HTR2B; tracer 0.1μM
Reported NanoBRET Fold Response values for a set of molecules
Keep the answer to the number alone.

# annotated cases, reported NanoBRET Fold Response shown
{"MOLECULE": "O=C(CCc1ccc2n1[B-](F)(F)[N+]1=C(c3ccc[nH]3)C=CC1=C2)NCCOCCOCCNC(=O)OCCOCCN1CCN(C2=Nc3ccccc3Sc3ccccc32)CC1", "ASSAYED TARGET": "HTR2B (Homo sapiens)", "VAL": 1.51}
{"MOLECULE": "CCCn1c(=O)c2[nH]c(-c3ccc(OCC(=O)NCCNC(=O)CCOCCNC(=O)c4ccc(CNC(=O)CCc5ccc6n5[B-](F)(F)[N+]5=C(c7ccc[nH]7)C=CC5=C6)cc4)cc3)nc2n(CCC)c1=O", "ASSAYED TARGET": "HTR2B (Homo sapiens)", "VAL": 1.29}
{"MOLECULE": "CC(C)N(CC[C@H](c1ccccc1)c1cc(CCNC(=O)c2ccc(CNC(=O)CCc3ccc4n3[B-](F)(F)[N+]3=C(c5ccc[nH]5)C=CC3=C4)cc2)ccc1O)C(C)C", "ASSAYED TARGET": "HTR2B (Homo sapiens)", "VAL": 0.83}
{"MOLECULE": "Cc1nc2n(c(=O)c1CCN1CCC(c3noc4cc(F)ccc34)CC1)CCCC2OC(=O)NCCOCCOCCOCCOCCNC(=O)CCc1ccc2n1[B-](F)(F)[N+]1=C(c3ccc[nH]3)C=CC1=C2 (centres unmarked)", "ASSAYED TARGET": "HTR2B (Homo sapiens)", "VAL": 1.03}

// COc1ccccc1N1CCN(CCCCN2C(=O)c3ccc(CNC(=O)CCOCCOCCOCCOCCNC(=O)CCc4ccc5n4[B-](F)(F)[N+]4=C(c6ccc[nH]6)C=CC4=C5)cc3C2=O)CC1 : NanoBRET Fold Response value = 0.92

Memo: O=C(CCc1ccc2n1[B-](F)(F)[N+]1=C(c3ccc[nH]3)C=CC1=C2)NCc1ccc(C(=O)NCCOCCC(=O)N[C@@H]2CC[C@@]3(O)[C@H]4Cc5ccc(O)c6c5[C@@]3(CCN4CC3CC3)[C@H]2O6)cc1 [Naltrexone-3-NB590] , reported NanoBRET Fold Response: 1.13

Looking up COc1ccccc1N1CCN(CCCCN2C(=O)c3ccc(CNC(=O)CCOCCNC(=O)c4ccc(CNC(=O)CCc5ccc6n5[B-](F)(F)[N+]5=C(c7ccc[nH]7)C=CC5=C6)cc4)cc3C2=O)CC1 , I see its NanoBRET Fold Response listed as 0.92

Data point: CC(C)N(CC[C@H](c1ccccc1)c1cc(CCNC(=O)CCOCCOCCOCCOCCNC(=O)CCc2ccc3n2[B-](F)(F)[N+]2=C(c4ccc[nH]4)C=CC2=C3)ccc1O)C(C)C ; NanoBRET Fold Response = 0.68

Reported NanoBRET Fold Response of Cc1cc2c(s1)Nc1ccccc1N=C2N1CCN(CCCNC(=O)CCOCCOCCOCCOCCNC(=O)CCc2ccc3n2[B-](F)(F)[N+]2=C(c4ccc[nH]4)C=CC2=C3)CC1 : 1.12

Lookup result for O=C(CCOCCOCCOCCOCCNC(=O)CCc1ccc2n1[B-](F)(F)[N+]1=C(c3ccc[nH]3)C=CC1=C2)NCCCN1CCN(C2=Nc3ccccc3Oc3ccc(Cl)cc32)CC1 ; measured NanoBRET Fold Response: 1.04

Entry N#CN=C(NCCCOc1cccc(CN2CCCCC2)c1)NCCNC(=O)CCOCCOCCOCCOCCNC(=O)CCc1ccc2n1[B-](F)(F)[N+]1=C(c3ccc[nH]3)C=CC1=C2 — recorded NanoBRET Fold Response = 0.90
